Cited source for all entries: patent US20030044399A1

- Tested target: Cruzain (Trypanosoma cruzi)
- Sequence (P25779 123-337): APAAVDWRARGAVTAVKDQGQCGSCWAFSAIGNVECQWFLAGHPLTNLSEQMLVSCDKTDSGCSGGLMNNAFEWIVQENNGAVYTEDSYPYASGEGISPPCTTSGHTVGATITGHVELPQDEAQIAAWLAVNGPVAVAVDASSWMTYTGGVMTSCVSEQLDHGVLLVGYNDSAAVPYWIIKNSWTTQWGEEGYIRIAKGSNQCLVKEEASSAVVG
- Assay details: Cysteine protease inhibition, progress curve method, cruzain
- Type: biochemical
- Study conditions: 4 uM Ac-Lys-Glu-Lys-Leu-Arg-AMC, 100 mM Na acetate pH 5.5, 5 mM cysteine; read-out: Cruzain Ki
// reported log10 of Ki for each item listed
Value kind: log10 of Ki (log10 of the value in nM)

# Molecule, Tested target, Value measured
rows = [
    ("CC(C)C[C@H](NC(=O)c1cc2ccccc2o1)C(=O)N[C@H]1CCCN(S(=O)(=O)c2nccs2)CC1=O", "Cruzain (Trypanosoma cruzi)", 0.40),
    ("CC(C)C[C@@H](NC(=O)c1cc2cc(OCCN3CCOCC3)ccc2o1)C(=O)N[C@@H]1CCCN(S(=O)(=O)c2ccccc2)CC1=O (stereo in doubt) [Example 6]", "Cruzain (Trypanosoma cruzi)", 1.32),
    ("CC(C)C[C@H](NC(=O)c1cc2ccccc2s1)C(=O)N[C@H]1C[C@H](C)CN(S(=O)(=O)c2ccccn2)CC1=O", "Cruzain (Trypanosoma cruzi)", 0.49),
    ("COc1ccc2oc(C(=O)N[C@@H](CC(C)C)C(=O)N[C@H]3C[C@H](C)CN(S(=O)(=O)c4ccccn4)CC3=O)cc2c1", "Cruzain (Trypanosoma cruzi)", 0.28),
    ("COc1ccc2oc(C(=O)N[C@@H](CC(C)C)C(=O)N[C@H]3CCCN(S(=O)(=O)c4cccc(Cl)c4)CC3=O)cc2c1", "Cruzain (Trypanosoma cruzi)", 1.04),
    ("CC(C)CC(NC(=O)c1ccc2c(c1)OCO2)C(=O)N[C@@H]1CCCN(S(=O)(=O)c2cccc[n+]2[O-])CC1=O (single isomer, unassigned)", "Cruzain (Trypanosoma cruzi)", 1.15),
]

---

- Tested target: Cruzain (Trypanosoma cruzi)
- Assay details: Cysteine protease inhibition, progress curve method, cruzain
- Type: biochemical
- Study conditions: Cruzain Ki nM, 4 uM Ac-Lys-Glu-Lys-Leu-Arg-AMC, 100 mM Na acetate pH 5.5, 5 mM cysteine
Value kind: Ki

# Compound, Value kind, Value measured
records = [
    ("Cc1c(C(=O)NC(CC(C)C)C(=O)NC2CCCN(S(=O)(=O)c3cccc[n+]3[O-])CC2=O)oc2ccc3ccccc3c12 (centres unmarked) [Example 210]", "Ki", "6.6 nM"),
    ("CC(C)C[C@H](NC(=O)c1cccc2ccccc12)C(=O)N[C@H]1CCCN(S(=O)(=O)c2ccccn2)CC1=O [Example 184]", "Ki", "2.1 nM"),
]

---

pKi: −log10 of the molar value.
pKi, Falcipain 2 (Plasmodium falciparum, UniProt Q8I6U4): measured values

# Compound, pKi
data = [
    ("CC(C)C[C@@H](NC(=O)c1ccnc2ccccc12)C(=O)N[C@@H]1CCCN(S(=O)(=O)c2ccccn2)CC1=O (single isomer, unassigned)", 8.35),
    ("COc1ccc2oc(C(=O)N[C@H](CC(C)C)C(=O)N[C@@H]3CCCN(S(=O)(=O)c4ncccc4C)CC3=O)cc2c1 (single isomer, unassigned) [Example 171]", 8.31),
    ("Cc1oc(-c2ccccc2)nc1C(=O)N[C@H](CC(C)C)C(=O)NC1CCCN(S(=O)(=O)c2cccc[n+]2[O-])CC1=O (stereo partly drawn)", 8.17),
]

---

- Tested target: Rhodazain (Trypanosoma brucei rhodesiense, UniProt Q95PM0)
- Sequence (Q95PM0 entry or part of it): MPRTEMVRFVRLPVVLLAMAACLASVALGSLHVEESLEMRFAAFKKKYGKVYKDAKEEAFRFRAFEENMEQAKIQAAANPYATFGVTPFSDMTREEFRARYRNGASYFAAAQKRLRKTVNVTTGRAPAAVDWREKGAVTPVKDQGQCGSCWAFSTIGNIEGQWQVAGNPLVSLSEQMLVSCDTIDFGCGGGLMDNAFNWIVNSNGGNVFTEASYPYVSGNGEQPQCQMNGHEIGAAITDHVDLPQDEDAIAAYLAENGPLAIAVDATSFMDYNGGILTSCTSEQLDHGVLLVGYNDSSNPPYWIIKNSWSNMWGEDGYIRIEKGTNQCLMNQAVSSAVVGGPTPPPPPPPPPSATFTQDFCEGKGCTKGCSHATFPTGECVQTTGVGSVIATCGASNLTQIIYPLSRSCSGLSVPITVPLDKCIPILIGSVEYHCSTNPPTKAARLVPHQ
- Assay details: Cysteine protease inhibition, progress curve method, rhodazain
- Type: biochemical, Trypanosoma brucei rhodesiensi
- Study conditions: Rhodazain Ki (nM), 10 uM Cbz-Leu-Arg-AMC, 100 mM Na acetate pH 5.5, 5 mM cysteine

# Compound, Ki
rows = [
    ("Cc1c(C(=O)N[C@@H](CC(C)C)C(=O)N[C@H]2CCCN(C(=O)Nc3ccccc3F)CC2=O)oc2ccccc12 [Example 216]", "3.4 nM"),
    ("CC(C)C[C@@H](NC(=O)c1cc2ccccc2s1)C(=O)N[C@@H]1CCCN(S(=O)(=O)c2ccccn2)CC1=O (stereo in doubt) [Example 31]", "5 nM"),
    ("CC(C)C[C@@H](NC(=O)c1ccc(Br)o1)C(=O)N[C@@H]1CCCN(S(=O)(=O)c2ccccn2)CC1=O (single isomer, unassigned) [Example 68]", "0.93 nM"),
    ("CC(C)C[C@H](NC(=O)c1cc2cc(O)ccc2o1)C(=O)N[C@H]1CCCN(S(=O)(=O)c2cn(C)cn2)CC1=O [Example 44]", "7.2 nM"),
    ("Cc1ccc(C(=O)NC(CC(C)C)C(=O)N[C@@H]2CCCN(S(=O)(=O)c3cccc[n+]3[O-])CC2=O)s1 (stereo partly shown) [Example 79]", "8 nM"),
    ("CC(C)C[C@@H](NC(=O)c1cc2ccccc2o1)C(=O)NC1CCCN(S(=O)(=O)c2ccccn2)CC1=O (single isomer, unassigned) [Example 21]", "3.2 nM"),
    ("CC(C)C[C@H](NC(=O)c1cccc2ncccc12)C(=O)N[C@H]1CCCN(S(=O)(=O)c2ccccn2)CC1=O [Example 185]", "2.1 nM"),
    ("CC(C)C[C@@H](NC(=O)c1ccc2[nH]ccc2c1)C(=O)N[C@@H]1CCCN(S(=O)(=O)c2cccc[n+]2[O-])CC1=O [Example 54]", "4.1 nM"),
    ("CC(C)C[C@@H](NC(=O)c1ccc(Br)o1)C(=O)N[C@@H]1CCCN(S(=O)(=O)c2cccc[n+]2[O-])CC1=O [Example 50]", "2.1 nM"),
    ("O=C(N[C@@H](Cc1ccc2ccccc2c1)C(=O)NC1CCCN(S(=O)(=O)c2ccccn2)CC1=O)c1cccc2cccnc12 (stereo partly shown) [Example 174]", "4.7 nM"),
    ("Cc1c(C(=O)N[C@@H](CC(C)C)C(=O)N[C@H]2CCCN(S(=O)(=O)c3nccs3)CC2=O)oc2ccccc12 [Example 126]", "3.8 nM"),
    ("CC(C)C[C@H](NC(=O)c1cc2ccccc2o1)C(=O)N[C@H]1CCCN(S(=O)(=O)c2cn(C)cn2)CC1=O [Example 42]", "1.8 nM"),
    ("O=C(N[C@@H](Cc1ccccc1)C(=O)NC1CCCN(S(=O)(=O)c2ccccn2)CC1=O)c1cccc2cccnc12 (stereo partly shown) [Example 176]", "5.9 nM"),
]
